Data credit: ChEMBL document CHEMBL3400004

assay_protocol: Therapeutic index, ratio of CC50 for cat FL-4 cells to EC50 for Feline immunodeficiency virus infected in cat FL-4 cells
Type: cell-based
condition_notes: read-out: Ratio CC50/EC50
Recorded selectivity ratio by entry

Please review the following examples before continuing.
{"smiles_data": "Cn1c2c(c3ccccc31)SSc1c(c3ccccc3n1C)SS2", "readout_name": "selectivity ratio", "experimental_result": "> 2330"}
{"smiles_data": "Cc1nnc(C(=O)NC(C)(C)c2nc(C(=O)NCc3ccc(F)cc3)c(O)c(=O)n2C)o1", "readout_name": "selectivity ratio", "experimental_result": "> 10000"}
{"smiles_data": "c1c2c(cc3c1SSc1cc4c(cc1SS3)OCCO4)OCCO2", "readout_name": "selectivity ratio", "experimental_result": "> 1450"}

Q: For the compound `COc1cc2c(cc1OC)SSc1cc(OC)c(OC)cc1SS2` , give its measured selectivity ratio value.
A: > 3240

Q: For the compound `Cn1c(Cl)c2c(c1Cl)SSc1c(c(Cl)n(C)c1Cl)SS2` , give its measured selectivity ratio value.
A: > 489

Q: For the compound `Cc1cn([C@H]2C[C@H](N=[N+]=[N-])[C@@H](CO)O2)c(=O)[nH]c1=O` , give its measured selectivity ratio value.
A: > 18.8

Q: For the compound `CC(C)(C)n1cc2c(c1)SSc1cn(C(C)(C)C)cc1SS2` , give its measured selectivity ratio value.
A: > 6.9
